assay: Pharmacokinetic study in beagle dogs; assay type: in vivo; conditions: dog, plasma, po, 6 mg/kg, Dog, Po. 6.0 mg/kg, read-out: t1/2 (converted)
MEASURED_PARAMETER: half-life (days)

INSERT INTO results (chemical_string, measured_parameter, numeric_value) VALUES
  ('COc1ncc(-c2ccc(Cl)cc2)cc1[C@@H](c1ccccc1)[C@@](O)(CCN(C)C)c1cccc2ccccc12', 'half-life', 2.32);

* * *

test: Pharmacokinetic study in beagle dogs; assay type: in vivo; conditions: dog, plasma, iv, 0.5 mg/kg, Dog, Iv. 0.5 mg/kg, read-out: t1/2 (converted)
MEASURED_PARAMETER: half-life

INSERT INTO measurements (chemical_string, result) VALUES
  ('COc1ncc(-c2ccc(Cl)cc2)cc1[C@@H](c1ccccc1)[C@@](O)(CCN(C)C)c1cccc2ccccc12', '2.34 days');
